Target: vanilloid receptor (VR1) (Homo sapiens, UniProt Q8NER1)
Construct: expressed in transfected cells; host or cells: CHO K1 cells (ECACC)
Sequence (Q8NER1 whole entry): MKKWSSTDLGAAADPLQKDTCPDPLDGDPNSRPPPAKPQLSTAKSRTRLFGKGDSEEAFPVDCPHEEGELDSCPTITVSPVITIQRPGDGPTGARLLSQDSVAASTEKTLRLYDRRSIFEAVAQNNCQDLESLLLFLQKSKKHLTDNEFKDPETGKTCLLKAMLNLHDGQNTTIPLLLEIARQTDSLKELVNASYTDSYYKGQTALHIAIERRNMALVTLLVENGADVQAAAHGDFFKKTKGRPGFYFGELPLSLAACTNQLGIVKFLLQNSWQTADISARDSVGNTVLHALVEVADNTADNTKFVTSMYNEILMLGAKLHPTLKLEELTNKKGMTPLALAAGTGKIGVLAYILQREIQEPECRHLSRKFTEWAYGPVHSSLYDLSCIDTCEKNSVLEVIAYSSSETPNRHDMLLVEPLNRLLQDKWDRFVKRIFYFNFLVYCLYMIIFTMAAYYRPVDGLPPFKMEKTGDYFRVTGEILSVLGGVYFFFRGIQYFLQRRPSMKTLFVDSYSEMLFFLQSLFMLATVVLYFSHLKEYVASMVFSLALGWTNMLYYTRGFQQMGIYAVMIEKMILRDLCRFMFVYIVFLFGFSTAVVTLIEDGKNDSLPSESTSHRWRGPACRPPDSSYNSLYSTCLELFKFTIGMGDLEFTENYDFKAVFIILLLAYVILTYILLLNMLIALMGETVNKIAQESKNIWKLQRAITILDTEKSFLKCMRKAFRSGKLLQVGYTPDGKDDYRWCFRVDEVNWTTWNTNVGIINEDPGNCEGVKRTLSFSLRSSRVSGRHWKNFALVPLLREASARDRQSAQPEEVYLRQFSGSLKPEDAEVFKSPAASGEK
Assay: Functional study on vanilloid receptor (VR1), FLIPR Ca2+ assay in VR1-transfected CHO K1 cells
Assay type: cell-based
Details: test substance 10 μM; CHO K1 cells transfected with VR1; suppression of Ca2+ current after 100 nM capsaicin; read-out: VR1 (human) (% inhibition compared to 10 μM CP)
result_type: inhibition at 10 µM (%)

Example entries begin here.
molecule: O=C1c2ccccc2SCCC1(CO)COC(=S)Nc1ccccc1 (centres unmarked) [Example Compound 9]
result_unit: %
inhibition at 10 µM: 51.3
--
molecule: O=C(NC1CCCCC1)OCC1(CO)CCSc2ccccc2C1=O (centres unmarked) [Example Compound 6]
result_unit: %
inhibition at 10 µM: 26.7

a = O=C1c2ccccc2SCCC1(CO)COC(=S)Nc1cccc(C(F)(F)F)c1 (centres unmarked) [Example Compound 17]
b = O=C1c2ccccc2SCCC1(CO)COC(=S)Nc1ccc(F)cc1F (centres unmarked) [Example Compound 21]
c = O=C1c2ccccc2CCCC1(CO)COC(=S)Nc1cccc(C(F)(F)F)c1 (centres unmarked) [Example Compound 22]
Q: Provide the items ranked by increasing inhibition at 10 µM. Sort and list the labels as requested.
Ans: a, b, c
(a: 17.1%, b: 36.3%, c: 67.5%)

Data origin, for the record: patent US7858613B2
